Data provenance is ChEMBL document CHEMBL1201862.

Test system: NCI-H522
METHOD: NCI tumour cell line growth inhibition, 48 h
Calls of active or inactive are those of the source. No stated cut-off is given here; in the data, active = GI50 up to about 1.1 µM and inactive = higher.
API: response.call in t = active, f = inactive

Recorded results for 6 compounds are shown here.
I'd appreciate the recorded outcome for `c1ccc(-c2c3c(nc4c2CC[C@H]4NC2=NCCN2)[C@@H](NC2=NCCN2)CC3)cc1` from this test.
f

Please state the recorded outcome for this compound: `COc1cccc(NC(=O)C(C)(C)C)c1C=O`
f

Give the logged outcome of this assay for the following compound: `COc1ccc2c(c1)C(=O)C(=O)c1cc(O)c(OC)c(OC)c1-2`
t

Would you mind telling me which call this test gave C=C1C=CC2(Br)OC3CC(C)(Cl)C(Br)CC13C2(C)C (configuration not stated) ?
f

Could you please tell me the result logged for COc1ccc(/C=C/C2=NN(c3cccc(S(=O)(=O)O)c3)C3(C2)SCC(=O)N3c2nc3ccccc3s2)cc1 (configuration not stated) in this assay?
f

What is the recorded call for this compound in the test? `C/C(=N\NC(=O)C[N+](C)(C)C)c1sc(-c2cccnc2)nc1C`
f

Query compound follows.
Each compound tested received a call. Report the one for `O=C(Nc1cc(Cl)c(Cl)cc1Cl)C(=O)C1C(=O)NC(=S)NC1=O` .
f

---

Tested on: EKVX
METHOD: NCI tumour cell line growth inhibition, 48 h
The source made the active and inactive calls. Rule as the data show it: active = GI50 up to about 1.1 µM and inactive = higher.
I would appreciate it if you answered using one of these outcomes: true (1) (active), false (0) (inactive)

Reference set, count: 5
Just curious, what result did COc1cc(C(c2cc(OC)c(OC)c(OC)c2)N2C(=O)CCC2C(=O)O)cc(OC)c1OC (stereo unspecified) get here?
false (0)

Entry `COC(=O)c1ccc(NCC2=CC(=O)C=CC2=O)cc1O` : call = ?
false (0)

What was the test verdict on O=C1CC(c2ccccc2Cl)C2(C(=O)NC(=S)NC2=O)C(c2ccccc2Cl)C1 (stereo unspecified) ?
false (0)

How did this test come out for CC(NC(CC12CC3CC(CC(C3)C1)C2)C(N)=O)c1ccccc1 (stereo unspecified) ?
false (0)

What call does the record list for `CCOC(=O)/C=C/CCO[Si](C)(C)C(C)(C)C` ?
false (0)

More entries:
Name the outcome recorded for N#C[BH2-][n+]1cn(C2CC(OP(=O)(O)OCC3OC(n4ccc(N)nc4=O)CC3O)C(CO)O2)c2nc(N)[nH]c(=O)c21 (stereo unspecified) in the assay.
false (0)

Per the assay record, what outcome was assigned to CCOC(=O)C1CCCc2sc(N)c(C#N)c21 (stereo unspecified) ?
false (0)

Tell me the assay call for Fc1cccc(Cl)c1C1SCc2nc3ccccc3n21 (stereo unspecified) please.
false (0)

# outcome recorded in this test, key = Cc1cn(C2CC(O)C(Cn3nncc3Cn3cnc4c(N)ncnc43)O2)c(=O)[nH]c1=O (stereo unspecified)
false (0)

Which outcome did this test record for the molecule Nc1ncnc2c(C3OC(CO)C(O)C3O)n[nH]c12 (stereo unspecified) ?
true (1)

Tell me the assay call for `O=C(O)CCc1nc2c(n1Cc1ccccc1)C(=O)c1ccccc1C2=O` please.
false (0)

For this molecule, state the assay outcome: CCOC1Oc2ccccc2-c2nc(SC)ncc21 (stereo unspecified)
false (0)

Just curious, what result did O=C(CC1(O)C(=O)Nc2ccc([N+](=O)[O-])cc21)c1ccc(Br)cc1 (stereo unspecified) get here?
false (0)
